All figures here come from patent US20250147035A1.

Target: T1, pSAKLDEESILKQ-Biotin
T1 peptide: [pS]AKLDEESILKQ-{Biotin′}
Assay: Octet (BLI), fixed reagent concentration;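 note: octet binding of candidate PTM-specific affinity reagents, each at one fixed concentration, to biotinylated phospho-Thr or phospho-Ser peptides, with unmodified biotinylated peptides serving as controls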
Primed or numbered codes have the meaning given here. Where no end group is shown, it is not given here. [ ]: non-standard residue; d: D form. pS = N[C@@H](COP(=O)(O)O)C(=O)O; Biotin′ = not defined here
measure_name: Octet binding assay response

binder: PM13 (Saccharomyces cerevisiae/FHA1) (other) MENITQPTQQSTQATQRFLIEKFSQEQIGENIVCRVICTTGQIPIRDLSADISQVLKEKRSIKKVWTFGRNPACDYHLGNISRLSNKHFQILLGEDGNLLLNDISTNGTWLNGQKVEKNSNQLLSQGDEITVGVGVESDILSLVIFINDKFKQCLEQNKVDRIRSNLKNTSKIASPGLTSSTASSMVANKTGIFKDFSIIDEVVGQGAFATVKKAIERTTGKTFAVKIISKRKVIGNMDGVTRELEVLQKLNHPRIVRLKGFYEDTESYYMVMEFVSGG
measured_number: 0.3
--
binder: PM02 (Human/14-3-3 protein theta) (other) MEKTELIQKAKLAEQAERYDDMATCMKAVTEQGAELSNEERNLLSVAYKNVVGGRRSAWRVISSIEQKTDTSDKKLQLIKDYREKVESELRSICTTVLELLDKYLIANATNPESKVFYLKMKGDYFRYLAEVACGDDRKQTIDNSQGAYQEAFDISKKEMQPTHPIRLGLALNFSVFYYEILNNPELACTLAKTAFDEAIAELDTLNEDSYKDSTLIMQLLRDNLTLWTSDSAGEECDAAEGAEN
measured_number: 0.3
